tested on: HCT116/VM46 (vinblastine-resistant strain of HCT116, Pgp over-expression) cells; test: Cell growth inhibition assay, HCT116/VM46; conditions: read-out: IC50 (nM) HCT116/VM46; resistant human colon cancer cell line, Pgp over-expression
RECORDED_METRIC: IC50 (nM)
Kindly answer with a numeric value in nM, unit omitted.

Ask | What IC50 value was documented for this compound, `CC[C@]1(NC(N)=S)C[C@@H]2CN(CCc3c([nH]c4ccccc34)[C@@](C(=O)OC)(c3cc4c(cc3OC)N(C)[C@H]3[C@@](O)(C(=O)OC)[C@H](OC(C)=O)[C@]5(CC)C=CCN6CC[C@]43[C@@H]65)C2)C1` ?
Reply | 2000

Ask | Next: CCC1(NC(=O)N2CCc3ccccc3C2)CC2CN(CCc3c([nH]c4ccccc34)C(C(=O)OC)(c3cc4c(cc3OC)N(C)C3C(O)(C(=O)OC)C(OC(C)=O)C5(CC)C=CCN6CCC43C65)C2)C1 (centres unmarked)
Reply | 8.7

Ask | Next: `CC[C@]1(NC(=O)NC2CCCCC2)C[C@@H]2CN(CCc3c([nH]c4ccccc34)[C@@](C(=O)OC)(c3cc4c(cc3OC)N(C)[C@H]3[C@@](O)(C(=O)OC)[C@H](OC(C)=O)[C@]5(CC)C=CCN6CC[C@]43[C@@H]65)C2)C1`
Reply | 450

Ask | Next: `CC[C@]1(NC(=O)Nc2ccc(C(F)(F)F)cc2)C[C@@H]2CN(CCc3c([nH]c4ccccc34)[C@@](C(=O)OC)(c3cc4c(cc3OC)N(C)[C@H]3[C@@](O)(C(=O)OC)[C@H](OC(C)=O)[C@]5(CC)C=CCN6CC[C@]43[C@@H]65)C2)C1`
Reply | 610

Ask | Next: CCC1(NC(=O)Nc2ccc(OC)cc2)CC2CN(CCc3c([nH]c4ccccc34)C(C(=O)OC)(c3cc4c(cc3OC)N(C)C3C(O)(C(=O)OC)C(OC(C)=O)C5(CC)C=CCN6CCC43C65)C2)C1 (centres unmarked)
Reply | 230

Ask | Next: `CC[C@]1(NC(=O)N2Cc3ccc(OC)cc3C2)C[C@@H]2CN(CCc3c([nH]c4ccccc34)[C@@](C(=O)OC)(c3cc4c(cc3OC)N(C)[C@H]3[C@@](O)(C(=O)OC)[C@H](OC(C)=O)[C@]5(CC)C=CCN6CC[C@]43[C@@H]65)C2)C1`
Reply | 8.7

Ask | Next: `CC[C@]1(NC(=O)N2CCC(c3ccccc3)CC2)C[C@@H]2CN(CCc3c([nH]c4ccccc34)[C@@](C(=O)OC)(c3cc4c(cc3OC)N(C)[C@H]3[C@@](O)(C(=O)OC)[C@H](OC(C)=O)[C@]5(CC)C=CCN6CC[C@]43[C@@H]65)C2)C1`
Reply | 55

Ask | Next: `CC[C@]1(NC(=O)Nc2ccccc2OC)C[C@@H]2CN(CCc3c([nH]c4ccccc34)[C@@](C(=O)OC)(c3cc4c(cc3OC)N(C)[C@H]3[C@@](O)(C(=O)OC)[C@H](OC(C)=O)[C@]5(CC)C=CCN6CC[C@]43[C@@H]65)C2)C1`
Reply | 65
